molecular target: Tyrosine-protein kinase receptor UFO (Homo sapiens); conditions: at 0.1 µM;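 note: values are mean percent inhibition of AXL from the GSK PKIS screen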
QUANTITY_KIND: inhibition (%)
Numbers only, in %.

Worked cases, inhibition given:
# MOLECULE_SMILES, TESTED_ON, QUANTITY_KIND, VALUE_UNIT, NUMERIC_READOUT
rows = [
    ("O=C(Nc1ccc(Oc2ccc3[nH]c(NC(=O)c4ccco4)nc3c2)cc1)Nc1cc(C(F)(F)F)ccc1F", "Tyrosine-protein kinase receptor UFO (Homo sapiens)", "inhibition", "%", 16.1),
    ("Nc1ccc(C#Cc2cncnc2Nc2ccc(OCc3cccc(F)c3)c(Cl)c2)cc1", "Tyrosine-protein kinase receptor UFO (Homo sapiens)", "inhibition", "%", -4.2),
    ("COc1cccc(-n2ncc3c(N/N=C/c4ccc(C)cc4)ncnc32)c1", "Tyrosine-protein kinase receptor UFO (Homo sapiens)", "inhibition", "%", -3.91),
    ("c1ccc(Cc2nc3ccc(Nc4ncnc5ccccc45)cc3[nH]2)cc1", "Tyrosine-protein kinase receptor UFO (Homo sapiens)", "inhibition", "%", -5.03),
    ("NS(=O)(=O)c1ccc(-c2cc3ccncc3cc2OCc2ccccc2)cc1", "Tyrosine-protein kinase receptor UFO (Homo sapiens)", "inhibition", "%", -5.69),
    ("Cc1ccc(O)cc1Nc1ccnc2ccc(S(C)(=O)=O)cc12", "Tyrosine-protein kinase receptor UFO (Homo sapiens)", "inhibition", "%", -7.59),
]

Dear reader, for each entry below, please note its inhibition.
1. Cc1cc(-c2ccccn2)cc(C)c1/C=C/c1cncc(-c2nn[nH]n2)c1
2. CN(C)c1cc2c(Nc3ccc4c(cnn4Cc4ccccc4)c3)ncnc2cn1
3. NS(=O)(=O)c1cccc(-c2cc3ccncc3cc2OCc2ccccc2)c1
4. COc1cc(Nc2nccc(-c3cnn4ncccc34)n2)cc(OC)c1

1: -5.03; 2: -6.03; 3: -7.61; 4: 2
